Data provenance is ChEMBL document CHEMBL1148625.

- Tested on: DNA polymerase beta (Homo sapiens, UniProt P06746)
pIC50: −log10 of the molar value.
Measured endpoint: pIC50

Q. Consider the compound shown here: O=c1c(C2=Nc3ccccc3S(=O)(=O)N2)c(O)c2cc(F)ccc2n1CCC1CC1 What is its recorded pIC50?
A. < 4.30

====

- Experiment description: Cmax in Beagle dog at 0.9 mg/kg, iv or 1.1 mg/kg, po
- Assay type: ADME, organism-based, Canis lupus familiaris
- Assay conditions: in vivo
Measured endpoint: Cmax (ng/mL)
Answers are plain numbers, in ng/mL.

Q. Which value of Cmax has been reported for O=c1c(C2=NS(=O)(=O)c3ccccc3N2)c(O)c2ccccc2n1CCC1CC1 in the records?
A. 5400
